Biological target: Steroid 17-alpha-hydroxylase/17,20 lyase (Homo sapiens, UniProt P05093)
Sequence (P05093 whole entry): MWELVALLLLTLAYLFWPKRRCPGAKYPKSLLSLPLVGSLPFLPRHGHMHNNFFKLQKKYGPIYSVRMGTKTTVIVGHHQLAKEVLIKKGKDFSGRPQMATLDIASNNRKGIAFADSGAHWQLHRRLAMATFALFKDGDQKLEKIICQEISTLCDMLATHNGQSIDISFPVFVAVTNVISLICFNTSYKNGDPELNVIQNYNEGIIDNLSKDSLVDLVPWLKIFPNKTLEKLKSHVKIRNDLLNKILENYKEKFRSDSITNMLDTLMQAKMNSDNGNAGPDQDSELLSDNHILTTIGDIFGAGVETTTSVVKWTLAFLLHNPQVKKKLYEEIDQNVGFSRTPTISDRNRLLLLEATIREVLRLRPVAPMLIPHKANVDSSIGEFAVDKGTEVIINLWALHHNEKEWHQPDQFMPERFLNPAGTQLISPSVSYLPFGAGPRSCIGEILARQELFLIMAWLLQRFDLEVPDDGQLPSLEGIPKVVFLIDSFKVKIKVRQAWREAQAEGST
Assay: Inhibition of CYP17 in human testicular microsomes using 17alpha-hydroxypregnenolone as substrate assessed as decrease in DHEA levels at 10 nM after 90 mins by ELISA relative to control
Parameters: species or system Testis
Details: 1.5 h
quantity.kind: inhibition at 0.01 µM

Would you please look over these solved cases?
[
  {
    "compound": "COC1CC[C@@]2(C)[C@@H](CC[C@@H]3[C@@H]2CC[C@]2(C)C(c4cncc(C)c4)=CC[C@@H]32)C1 (some centres not stated)",
    "inhibition at 0.01 µM": "1 to 50%"
  },
  {
    "compound": "COc1cncc(C2=CC[C@H]3[C@@H]4CCN5CCCCC[C@]5(C)[C@H]4CC[C@]23C)c1",
    "inhibition at 0.01 µM": "1 to 50%"
  },
  {
    "compound": "COc1cncc(C2=CC[C@H]3[C@@H]4CC=C5N(C)C(=O)CCC[C@]5(C)[C@H]4CC[C@]23C)c1",
    "inhibition at 0.01 µM": "≥ 80%"
  }
]

Short answer please: inhibition at 0.01 µM, Steroid 17-alpha-hydroxylase/17,20 lyase (Homo sapiens, UniProt P05093), entry COc1cncc(C2=CC[C@H]3[C@@H]4CC[C@H]5CCCCC[C@]5(C)[C@H]4CC[C@]23C)c1
50 to 80%

Observed inhibition at 0.01 µM on Steroid 17-alpha-hydroxylase/17,20 lyase (Homo sapiens, UniProt P05093) for COc1cncc(C2=CC[C@H]3[C@@H]4CC[C@H]5CCOCC[C@]5(C)[C@H]4CC[C@]23C)c1 , please.
50 to 80%

Request - read-out inhibition at 0.01 µM | tested on Steroid 17-alpha-hydroxylase/17,20 lyase (Homo sapiens, UniProt P05093) | compound C[C@]12CC[C@H]3[C@@H](CC[C@H]4CC(=O)NCC[C@@]43C)C1=CC=C2c1cccnc1
≥ 80%

Recorded inhibition at 0.01 µM for COc1cncc(C2=CC[C@H]3[C@@H]4CCC5=CCN(C)CC[C@]5(C)[C@H]4CC[C@]23C)c1 with Steroid 17-alpha-hydroxylase/17,20 lyase (Homo sapiens, UniProt P05093), please?
1 to 50%

---

Target: CYP21 (steroid 21-hydroxylase) (Homo sapiens, UniProt P08686)
Sequence (P08686 whole entry): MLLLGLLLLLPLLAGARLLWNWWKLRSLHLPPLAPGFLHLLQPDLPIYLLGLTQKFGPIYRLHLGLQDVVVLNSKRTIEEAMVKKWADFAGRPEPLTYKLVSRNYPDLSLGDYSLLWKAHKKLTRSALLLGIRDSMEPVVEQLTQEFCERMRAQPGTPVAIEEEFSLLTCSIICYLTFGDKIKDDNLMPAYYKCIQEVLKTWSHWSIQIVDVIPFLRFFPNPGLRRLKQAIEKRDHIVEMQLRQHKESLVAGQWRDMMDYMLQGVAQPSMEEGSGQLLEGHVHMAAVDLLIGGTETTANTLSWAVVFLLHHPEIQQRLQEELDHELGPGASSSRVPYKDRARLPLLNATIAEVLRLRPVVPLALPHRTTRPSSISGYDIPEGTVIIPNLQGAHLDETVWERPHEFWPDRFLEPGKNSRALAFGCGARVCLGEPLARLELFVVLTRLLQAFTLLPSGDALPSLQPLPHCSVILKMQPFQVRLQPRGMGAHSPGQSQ
Assay: Inhibition of human CYP21 transfected in HEK293 cells assessed as decrease in conversion of progesterone to 11-deoxycorticosterone preincubated for 5 hrs followed by progesterone addition measured after 20 hrs by ELISA
Type: cell-based
Design: concentration or dose not given beside the values
Details: HEK293 cells transfected with human CYP21, probe progesterone
quantity.kind: inhibition at 20 h

Guide cases for inhibition at 20 h, answers given:
[
  {
    "compound": "CC1C[C@H]2[C@@H]3CC=C(c4cccnc4)[C@@]3(C)CC[C@@H]2[C@@]2(C)CC[C@H](O)CC12O (some centres undefined)",
    "tested.on": "CYP21 (steroid 21-hydroxylase) (Homo sapiens, UniProt P08686)",
    "inhibition at 20 h": "≥ 50%"
  },
  {
    "compound": "Cc1cc(C2=CC[C@H]3[C@@H]4CC=C5C[C@@H](O)CC[C@]5(C)[C@H]4CC[C@]23C)cnc1F",
    "tested.on": "CYP21 (steroid 21-hydroxylase) (Homo sapiens, UniProt P08686)",
    "inhibition at 20 h": "< 10%"
  },
  {
    "compound": "C=C1C[C@@H]2[C@H](CC[C@]3(C)C(c4cccnc4)=CC[C@@H]23)[C@@]2(C)CCC(=O)C=C12",
    "tested.on": "CYP21 (steroid 21-hydroxylase) (Homo sapiens, UniProt P08686)",
    "inhibition at 20 h": "≥ 50%"
  },
  {
    "compound": "C[C@H]1C2CC[C@@H]3[C@H](CC[C@]4(C)C(c5cncc(C(F)F)c5)=CC[C@@H]34)[C@@]2(C)CC[C@@H]1O (some centres undefined)",
    "tested.on": "CYP21 (steroid 21-hydroxylase) (Homo sapiens, UniProt P08686)",
    "inhibition at 20 h": "10 to 50%"
  },
  {
    "compound": "CCNC(=O)NC1CC[C@@]2(C)C(=CC[C@@H]3[C@@H]2CC[C@]2(C)C(c4cncc(OC)c4)=CC[C@@H]32)C1 (some centres undefined)",
    "tested.on": "CYP21 (steroid 21-hydroxylase) (Homo sapiens, UniProt P08686)",
    "inhibition at 20 h": "10 to 50%"
  }
]

Which inhibition at 20 h value belongs to COC1CC[C@@]2(C)C(=CC[C@@H]3[C@@H]2CC[C@]2(C)C(c4cccnc4)=CC[C@@H]32)C1 (some centres undefined) ?
< 10%

Which measured inhibition at 20 h value corresponds to CCC(=O)N1CCC[C@@]2(C)C(CC[C@@H]3[C@@H]2CC[C@]2(C)C(c4cccnc4)=CC[C@@H]32)C1 (some centres undefined) ?
10 to 50%

Param item = C[C@]12C=CC(=O)C=C1C1(CC1)C[C@@H]1[C@@H]2CC[C@]2(C)C(c3cccnc3)=CC[C@@H]12 ; retrieve measured inhibition at 20 h.
10 to 50%

Fill in the blank: the reported inhibition at 20 h of CCNC(=O)N[C@@H]1CC[C@@]2(C)C(=CC[C@@H]3[C@@H]2CC[C@]2(C)C(c4cncc(F)c4)=CC[C@@H]32)C1 is ____.
10 to 50%

What value of inhibition at 20 h has been recorded for this entry: CCC1C[C@@H]2[C@H](CC[C@]3(C)C(c4cccnc4)=CC[C@@H]23)[C@@]2(C)CCC(=O)C=C12 (some centres undefined)
10 to 50%

Item C[C@]12CC(O)CC1CC[C@@H]1[C@@H]2CC[C@]2(C)C(c3cncc(Cl)c3)=CC[C@@H]12 (some centres undefined) has what recorded inhibition at 20 h?
10 to 50%

inhibition at 20 h lookup needed for C[C@]12CC[C@H](O)CC1=CC[C@@H]1[C@@H]2CC[C@]2(C)C(c3cncc(F)c3)=CC[C@@H]12 , thanks.
≥ 50%

Data request, read-out inhibition at 20 h, for CC1C[C@H]2C3=CC=C(c4cccnc4)[C@@]3(C)CC[C@@H]2[C@@]2(C)CCC(=O)C=C12 (some centres undefined)
≥ 50%

Could you tell me which inhibition at 20 h is on file for CC1C[C@@]2(C)C(CC[C@@H]3[C@@H]2CC[C@]2(C)C(c4cccnc4)=CC[C@@H]32)C(C)C1O (some centres undefined) ?
10 to 50%

---

Listing of recorded inhibition at 20 h, 0.1 µM by entry.
Molecular target: CYP21 (steroid 21-hydroxylase) (Homo sapiens)
Assay: Inhibition of human CYP21 transfected in HEK293 cells assessed as decrease in conversion of progesterone to 11-deoxycorticosterone at 100 nM preincubated for 5 hrs followed by progesterone addition measured after 20 hrs by ELISA relative to control
Type: cell-based
Conditions: HEK293 cells transfected with human CYP21, probe progesterone

Observe how each entry below is paired with its result.
[
  {
    "compound": "C[C@]12CC[C@H]3[C@@H](CC[C@H]4CC(=O)NCC[C@@]43C)C1=CC=C2n1ccnc1",
    "tested.on": "CYP21 (steroid 21-hydroxylase) (Homo sapiens)",
    "inhibition at 20 h, 0.1 µM": "≥ 30%"
  },
  {
    "compound": "COc1cncc(C2=CC=C3[C@@H]4CCC5=CC(=O)N(C)CC[C@]5(C)[C@H]4CC[C@]23C)c1",
    "tested.on": "CYP21 (steroid 21-hydroxylase) (Homo sapiens)",
    "inhibition at 20 h, 0.1 µM": "≥ 30%"
  },
  {
    "compound": "CN1CC[C@@]2(C)C(=CC1=O)CC[C@H]1C3=CC=C(c4cnccn4)[C@@]3(C)CC[C@@H]12",
    "tested.on": "CYP21 (steroid 21-hydroxylase) (Homo sapiens)",
    "inhibition at 20 h, 0.1 µM": "≥ 30%"
  },
  {
    "compound": "Cc1cncc(C2=CC=C3[C@@H]4CCC5=CC(=O)N(C)CC[C@]5(C)[C@H]4CC[C@]23C)c1",
    "tested.on": "CYP21 (steroid 21-hydroxylase) (Homo sapiens)",
    "inhibition at 20 h, 0.1 µM": "< 30%"
  },
  {
    "compound": "C[C@]12CCNC(=O)C=C1CC[C@@H]1[C@@H]2CC[C@]2(C)C(c3cnccn3)=CC[C@@H]12",
    "tested.on": "CYP21 (steroid 21-hydroxylase) (Homo sapiens)",
    "inhibition at 20 h, 0.1 µM": "≥ 30%"
  },
  {
    "compound": "C[C@]12CCNC(=O)C=C1CC[C@@H]1[C@@H]2CC[C@]2(C)C(n3cncn3)=CC[C@@H]12",
    "tested.on": "CYP21 (steroid 21-hydroxylase) (Homo sapiens)",
    "inhibition at 20 h, 0.1 µM": "≥ 30%"
  }
]

What does the data say about its inhibition at 20 h, 0.1 µM? Entry: C[C@]12CC[C@H]3[C@@H](CCC4=CC(=O)NCC[C@@]43C)C1=CC=C2n1ccnc1
< 30%

Given the entry C[C@]12CCNC(=O)C=C1CC[C@@H]1[C@@H]2CC[C@]2(C)C(n3ccnc3)=CC[C@@H]12 , report its measured inhibition at 20 h, 0.1 µM.
< 30%

Recorded inhibition at 20 h, 0.1 µM for C[C@]12CC(O)C[C@@H]1CC[C@@H]1[C@@H]2CC[C@]2(C)C(n3ccnc3)=CC[C@@H]12 (stereo not given in full) , please?
≥ 30%

Which inhibition at 20 h, 0.1 µM is reported for this compound? C[C@]12CC[C@H]3[C@@H](CCC4=CC(=O)CC[C@@]43C)C1=CC=C2c1cccnc1
≥ 30%

Fill blank: measured inhibition at 20 h, 0.1 µM of the compound CCNC(=O)N[C@@H]1CC[C@@]2(C)C(=CC[C@@H]3[C@@H]2CC[C@]2(C)C(n4ccnc4)=CC[C@@H]32)C1 is ____.
< 30%

Which measured inhibition at 20 h, 0.1 µM value corresponds to COc1cncc(C2=CC=C3[C@@H]4CCC5=CC(=O)CC[C@]5(C)[C@H]4CC[C@]23C)c1 ?
≥ 30%

Which measured inhibition at 20 h, 0.1 µM value corresponds to C[C@]12CC[C@H]3[C@@H](CC[C@H]4CC(=O)CC[C@@]43C)C1=CC=C2c1cccnc1 ?
≥ 30%

Find the recorded inhibition at 20 h, 0.1 µM belonging to C[C@]12CCNC(=O)C=C1CC[C@@H]1[C@@H]2CC[C@]2(C)C(c3cncnc3)=CC[C@@H]12 and report it.
≥ 30%

Which inhibition at 20 h, 0.1 µM is listed for C[C@]12CCNC(=O)C=C1CC[C@@H]1[C@@H]2CC[C@]2(C)C(n3ccnn3)=CC[C@@H]12 ?
< 30%

Source of measurements: ChEMBL document CHEMBL3882724
